Tested on: UACC-257 melanoma
Assay: NCI-60 one-dose screen, 48 h (100 = growth as untreated, 0 = no growth, -100 = all killed)
Conditions: 10 µM unless noted
About 83,000 compounds went through this panel and 20% of them were active in at least one assay; those are over-represented in the sample as a whole. The source made the active and inactive calls. How the source made its calls: active means growth percent below 10; inactive means the rest.
Items are presented alongside their recorded growth.

{"COMPOUND": "Cc1c2ccccc2nc2c1ccc1cccnc12", "TARGET OR TEST SYSTEM": "UACC-257 melanoma", "growth": "72.3% (inactive)"}
{"COMPOUND": "CCOC(=O)c1c(C)nc2c(c1N)CC(=O)N2Cc1cc(OC)c(OC)c(OC)c1", "TARGET OR TEST SYSTEM": "UACC-257 melanoma", "growth": "53% (inactive)"}
{"COMPOUND": "COc1ccc(NC(=O)c2sc3nc4c(cc3c2N)CCCC4)cc1", "TARGET OR TEST SYSTEM": "UACC-257 melanoma", "growth": "53% (inactive)"}
{"COMPOUND": "N#Cc1c(-c2ccccc2)cc(-c2ccccc2)n(CCCC(=O)NO)c1=O", "TARGET OR TEST SYSTEM": "UACC-257 melanoma", "growth": "37.6% (inactive)"}
{"COMPOUND": "CN(C)c1ccc(/C=C2/C=C(c3ccccc3)OC2=O)cc1", "TARGET OR TEST SYSTEM": "UACC-257 melanoma", "growth": "89.2% (inactive)"}
{"COMPOUND": "CCOC(=O)C(=Cc1cccc(C#N)c1)C(=O)OCC", "TARGET OR TEST SYSTEM": "UACC-257 melanoma", "growth": "69.6% (inactive)"}
{"COMPOUND": "COc1ccc(C/C(C)=C(\\c2ccc(O)cc2)c2ccc(OCCN3CCCC3)cc2)cc1", "TARGET OR TEST SYSTEM": "UACC-257 melanoma", "growth": "99.1% (inactive)"}
{"COMPOUND": "CCN(C(=O)N1CCN(c2cc3c(cc2F)c(=O)c(C(=O)O)cn3C2CC2)CC1)c1nc(-c2ccc(C)cc2)cs1", "TARGET OR TEST SYSTEM": "UACC-257 melanoma", "growth": "14.6% (inactive)"}
{"COMPOUND": "O=C1c2cc3c(cc2-c2c1c1ccc(Cl)cc1c(=O)n2C[C@H](O)CO)OCO3", "TARGET OR TEST SYSTEM": "UACC-257 melanoma", "growth": "-36% (active)"}
{"COMPOUND": "C=C(CO)[C@@H]1CC[C@]2(COC3CCCCO3)CC[C@]3(C)[C@H](CC[C@@H]4[C@@]5(C)C=C(C=O)C(=O)C(C)(C)[C@@H]5CC[C@]43C)[C@@H]12 (stereo not given in full)", "TARGET OR TEST SYSTEM": "UACC-257 melanoma", "growth": "-64.4% (active)"}
